- SYSTEM_NAME: 3-keto-steroid reductase/17-beta-hydroxysteroid dehydrogenase 7 (Homo sapiens)
- CONDITION_DETAILS: HEK293, at 0.3 µM
- Description: Inhibition of human 17beta-HSD7 expressed in HEK293 cells assessed as inhibition of reduction of [14C]estrone into [14C]estradiol at 0.3 uM after 7 hrs
EXPERIMENTAL_ENDPOINT: inhibition (%)

> print(dat)
                                 smiles.text                               system.name  quantitative.result
 1  CN1C(=O)CC[C@]2(C)[C@H]3CC[C@]4(C)[C@@H](N(C=O)C5CC5)CC[C@H]4[C@@H]3CC[C@@H]12  3-keto-steroid reductase/17-beta-hydroxysteroid dehydrogenase 7 (Homo sapiens)                 17.6
 2  CCCCCCCN(C(=O)c1ccc(OC)c(C(F)(F)F)c1)[C@H]1CC[C@H]2[C@@H]3CC[C@H]4N(C)C(=O)CC[C@]4(C)[C@H]3CC[C@]12C  3-keto-steroid reductase/17-beta-hydroxysteroid dehydrogenase 7 (Homo sapiens)                   59
 3  C[C@]12CCC(=O)C(O)=C1CC[C@@H]1[C@@H]2CC[C@]2(C)C(=O)CC[C@@H]12  3-keto-steroid reductase/17-beta-hydroxysteroid dehydrogenase 7 (Homo sapiens)                  8.1
 4  CC1(C)CC[C@@]2(CC[C@H]3[C@@H]4CCc5cc(C(=O)O)ccc5[C@H]4CC[C@@]32C)OC1=O  3-keto-steroid reductase/17-beta-hydroxysteroid dehydrogenase 7 (Homo sapiens)                 28.1
 5  C[C@]12CC[C@@H]3c4ccccc4CC[C@H]3[C@@H]1CC[C@@]21CCCC(=O)O1  3-keto-steroid reductase/17-beta-hydroxysteroid dehydrogenase 7 (Homo sapiens)                  6.1
 6  C[C@]12CC[C@@H](O)C[C@@H]1CC[C@@H]1[C@@H]2CC[C@]2(C)[C@@H](O)CC[C@@H]12  3-keto-steroid reductase/17-beta-hydroxysteroid dehydrogenase 7 (Homo sapiens)                  1.1
 7  C[C@]12C[C@H](O)[C@H]3[C@@H](CCC4=CC(=O)CC[C@@]43C)[C@@H]1CC[C@@H]2C(=O)CO  3-keto-steroid reductase/17-beta-hydroxysteroid dehydrogenase 7 (Homo sapiens)                  8.1
 8  CCCCCCCN(C(=O)c1ccc(F)cc1F)[C@H]1CC[C@H]2[C@@H]3CC[C@H]4N(C)C(=O)CC[C@]4(C)[C@H]3CC[C@]12C  3-keto-steroid reductase/17-beta-hydroxysteroid dehydrogenase 7 (Homo sapiens)                   73
 9  CCCCCCCCCCN(C(=O)c1c(F)cccc1C(F)(F)F)[C@H]1CC[C@H]2[C@@H]3CC[C@H]4N(C)C(=O)CC[C@]4(C)[C@H]3CC[C@]12C  3-keto-steroid reductase/17-beta-hydroxysteroid dehydrogenase 7 (Homo sapiens)                   19
10  CN1C(=O)CC[C@]2(C)[C@H]3CC[C@]4(C)[C@@H](Nc5ccc([N+](=O)[O-])c(C(F)(F)F)c5)CC[C@H]4[C@@H]3CC[C@@H]12  3-keto-steroid reductase/17-beta-hydroxysteroid dehydrogenase 7 (Homo sapiens)                 66.1
11  CCCCCCCCCCN(C(=O)c1ccccc1Cl)[C@H]1CC[C@H]2[C@@H]3CC[C@H]4N(C)C(=O)CC[C@]4(C)[C@H]3CC[C@]12C  3-keto-steroid reductase/17-beta-hydroxysteroid dehydrogenase 7 (Homo sapiens)                   37
12  CCCCCCCCCCN(C(=O)c1ccc(Br)cc1)[C@H]1CC[C@H]2[C@@H]3CC[C@H]4N(C)C(=O)CC[C@]4(C)[C@H]3CC[C@]12C  3-keto-steroid reductase/17-beta-hydroxysteroid dehydrogenase 7 (Homo sapiens)                   52
